// data source = patent US20240059729A1

System: CT26 cells
Test Name: Inhibition of proliferation of CT26 cells (CellTiter-Glo)
Type: cell-based, mouse
Condition Details: Mus musculus, 120 hours, CellTiter-Glo
pIC50: −log10 of the molar value. Structures can show the parent of a compound that is named as a salt.
Value Type: pIC50

Molecule	Measured Target	Value Type	Result
Nc1nc(Cl)nc2c1ncn2[C@@H]1O[C@H](CO)[C@@H](O)[C@@H]1F [Clofarabine—, clofarabine, reference compound]	CT26 cells	pIC50	> 6.00
Nc1nc(Cl)nc2c1ncn2[C@H]1C[C@H](O)[C@@H](CO)O1 [Cladribine, cladribine, reference compound]	CT26 cells	pIC50	> 6.00
Nc1nc2c(ncn2[C@@H]2O[C@@H]3CO[P@@](=O)(S)OC4C(F)[C@H](n5cnc6c(N)nc(Cl)nc65)O[C@@H]4CO[P@](=O)(S)OC3C2O)c(=O)[nH]1 (some centres unmarked) [Example 16, diammonium salt]	CT26 cells	pIC50	5.00 to 6.00
Nc1nc(Cl)nc2c1ncn2[C@@H]1O[C@@H]2CO[P@@](=O)(S)OC3[C@@H](F)[C@H](n4cnc5c(N)nc(Cl)nc54)O[C@@H]3CO[P@@](=O)(S)O[C@@H]2C1F (some centres unmarked)	CT26 cells	pIC50	5.00 to 6.00
Nc1ccn([C@@H]2O[C@@H]3CO[P@@](=O)(S)O[C@H]4C(O)[C@@H](CO[P@@](=O)(S)O[C@@H]3C2(F)F)O[C@H]4n2cnc3c(=O)[nH]c(N)nc32)c(=O)n1 (some centres unmarked)	CT26 cells	pIC50	> 6.00
Nc1nc(Cl)nc2c1ncn2[C@H]1CC2O[P@](=O)(S)OC[C@H]3O[C@@H](n4cnc5c(N)nc(Cl)nc54)CC3O[P@](=O)(S)OC[C@H]2O1 (some centres unmarked)	CT26 cells	pIC50	5.00 to 6.00
Nc1nc2c(ncn2[C@@H]2O[C@@H]3CO[P@@](=O)(S)OC4C(F)[C@H](n5cnc6c(N)nc(Cl)nc65)O[C@@H]4CO[P@@](=O)(S)OC3C2O)c(=O)[nH]1 (some centres unmarked) [Example 17, diammonium salt]	CT26 cells	pIC50	5.00 to 6.00
Nc1nc2c(ncn2[C@@H]2O[C@@H]3CO[P@@](=O)(S)OC4C(F)[C@H](n5cnc6c(N)nc(Cl)nc65)O[C@@H]4CO[P@@](=O)(S)OC2C3O)c(=O)[nH]1 (some centres unmarked) [Example 10, diammonium salt]	CT26 cells	pIC50	> 6.00
Nc1nc(Cl)nc2c1ncn2[C@@H]1O[C@@H]2CO[P@@](=O)(S)OC3C(O)[C@@H](CO[P@@](=O)(S)OC2C1F)O[C@H]3n1cnc2c(N)ncnc21 (some centres unmarked) [Example 5, diammonium salt]	CT26 cells	pIC50	5.00 to 6.00
CCCC(CCC)C(=O)Nc1ccn([C@@H]2O[C@H](CO)[C@@H](O)C2(F)F)c(=O)n1 [LY2334737, reference compound]	CT26 cells	pIC50	5.00 to 6.00
Nc1ccn([C@@H]2O[C@H](CO)[C@@H](O)C2(F)F)c(=O)n1 [Gemcitabine, gemcitabine, reference compound]	CT26 cells	pIC50	> 6.00

---

Tested on: IFN-β secretion by THP-1 cells
Test Name: Activation of IFN-β secretion by THP-1 cells (Human IFN-beta ELISA)
Format: cell-based
Condition Details: Homo sapiens, THP-1, 24 h, THP-1 cells, 24 hours, IFN-β ELISA
Method: THP-1 cell, a human monocytic leukemia cell line, has the STING phenotype of HAQ type, i.e., R71H-G230A-R293Q. […] In thawing the THP-1 cells (ATCC #TIB-202), a cell freezing tube was quickly shaken in a water bath at 37° C. to thaw the cells within 1 min. […] Cell viability was then detected by Trypan blue exclusion test and to be used for plating when the cell viability was confirmed to be more than 95%. […]
Structures can show the parent of a compound that is named as a salt.
Value Type: EC50

Molecule	Value Type	Result
Nc1nc2c(ncn2[C@@H]2O[C@@H]3CO[P@@](=O)(S)OC4C(F)[C@H](n5cnc6c(N)nc(Cl)nc65)O[C@@H]4CO[P@](=O)(S)OC2C3O)c(=O)[nH]1 (stereo partly shown) [Example 8, diammonium salt]	EC50	10.1 to 100 µM
Nc1nc2c(ncn2[C@@H]2O[C@@H]3CO[P@@](=O)(S)OC4C[C@H](n5cnc6c(N)nc(Cl)nc65)O[C@@H]4CO[P@](=O)(S)OC2C3O)c(=O)[nH]1 (stereo partly shown) [Example 11, diammonium salt]	EC50	10.1 to 100 µM
Nc1ccn([C@@H]2O[C@@H]3CO[P@@](=O)(S)O[C@H]4C(O)[C@@H](CO[P@@](=O)(S)O[C@@H]3C2(F)F)O[C@H]4n2cnc3c(=O)[nH]c(N)nc32)c(=O)n1 (stereo partly shown) [Example 13]	EC50	10.1 to 100 µM
Nc1nc2c(ncn2[C@@H]2O[C@@H]3CO[P@@](=O)(S)OC4C(F)[C@H](n5cnc6c(N)nc(Cl)nc65)O[C@@H]4CO[P@@](=O)(S)OC3C2O)c(=O)[nH]1 (stereo partly shown) [Example 17, diammonium salt]	EC50	1 to 10 µM
